Value source: patent US20140349943A1

target: ChemR23 (CMKLR1) (Homo sapiens, UniProt Q99788); construct: host or cells: CHO; test: PathHunter β-Arrestin assay, ChemR23 (CMKLR1), agonist and antagonist mode; type: cell-based; details: ChemR23; antagonist mode, chemerin at EC80
Sequence (Q99788 whole entry): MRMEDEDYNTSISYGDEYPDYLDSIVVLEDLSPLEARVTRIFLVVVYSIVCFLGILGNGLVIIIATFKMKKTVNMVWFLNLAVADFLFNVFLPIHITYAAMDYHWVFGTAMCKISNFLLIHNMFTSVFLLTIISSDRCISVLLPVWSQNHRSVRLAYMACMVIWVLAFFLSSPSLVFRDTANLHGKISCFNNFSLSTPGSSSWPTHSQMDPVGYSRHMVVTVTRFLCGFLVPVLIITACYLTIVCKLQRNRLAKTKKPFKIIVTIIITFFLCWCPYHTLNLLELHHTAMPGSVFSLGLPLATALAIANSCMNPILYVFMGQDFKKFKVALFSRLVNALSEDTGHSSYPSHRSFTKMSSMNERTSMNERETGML
Peptide text beside a SMILES is read from it.
Measurement Name: % Max Inhibition (%)

CC(C)C[C@H](NC(=O)[C@H](Cc1ccccc1)NC(=O)[C@H](Cc1ccc(O)cc1)NC(=O)CNC(=O)[C@H](Cc1c[nH]cn1)NC(=O)[C@@H]1CCCN1C(=O)[C@H](CC(=O)O)NC(=O)[C@H](CCC(=O)O)NC(=O)CNC(=O)[C@H](C)N)C(=O)N1CCC[C@H]1C(=O)NCC(=O)N[C@@H](CCC(N)=O)C(=O)N[C@@H](Cc1ccccc1)C(=O)N[C@@H](C)C(=O)O [mC15] (H-AGEDPHGYFLPGQFA-OH; N-terminus and C-terminus assumed)    0

====

Target: GPR1 (Homo sapiens, UniProt P46091)
Construct: host or cells: CHO
Sequence (P46091 1-355): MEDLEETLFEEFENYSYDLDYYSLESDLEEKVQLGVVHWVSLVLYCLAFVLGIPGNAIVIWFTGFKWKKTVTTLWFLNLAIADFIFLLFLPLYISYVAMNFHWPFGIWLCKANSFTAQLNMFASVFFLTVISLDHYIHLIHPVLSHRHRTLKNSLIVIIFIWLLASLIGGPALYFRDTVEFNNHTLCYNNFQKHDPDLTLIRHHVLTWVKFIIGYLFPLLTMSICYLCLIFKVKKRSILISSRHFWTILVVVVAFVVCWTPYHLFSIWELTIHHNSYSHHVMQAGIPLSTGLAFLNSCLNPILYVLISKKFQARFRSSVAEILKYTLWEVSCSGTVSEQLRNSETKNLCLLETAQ
Assay: PathHunter β-Arrestin assay, GPR1, agonist and antagonist mode
Assay type: cell-based
Settings: GPR1; agonist mode
Peptide text beside a SMILES is read from it.
Measurement Name: % Max Activity (%)

CC(C)C[C@H](NC(=O)[C@H](Cc1ccccc1)NC(=O)[C@H](Cc1ccc(O)cc1)NC(=O)CNC(=O)[C@H](Cc1c[nH]cn1)NC(=O)[C@@H]1CCCN1C(=O)[C@H](CC(=O)O)NC(=O)[C@H](CCC(=O)O)NC(=O)CNC(=O)[C@H](C)N)C(=O)N1CCC[C@H]1C(=O)NCC(=O)N[C@@H](CCC(N)=O)C(=O)N[C@@H](Cc1ccccc1)C(=O)N[C@@H](C)C(=O)O [mC15] (H-AGEDPHGYFLPGQFA-OH; N-terminus and C-terminus assumed)    27.8
